# tested-target: T1, Recombinant SARS-CoV-2 N protein His tagged (SARS-CoV-2, UniProt P0DTC9 1-419)
# T1 construct: also called nucleocapsid (N) protein; recombinant HIS tagged SARS-CoV-2 N protein
# procedure-details: BLI (Octet Red 96E), mAb on anti-mouse Fc biosensor, N protein in solution, global 1:1 fit
Reported kon values are given for each entry in this list.
Express your answer in M⁻¹ s⁻¹, writing the number without its unit.

>>> assay_result("SCT-Pa10 (antibody, mouse IgG1, kappa, V domains shown) VH: QVQLQQSGPELVKPGASVKISCKASGYAFSTSWMNWMKQRPGKGLEWIGRIYPGDGETNYNGKFKGKATLTADKSSSTAYMQLSSLTSDDSAVYFCARGANGDYLFYLDYWGQGTTLTVSS VL: DIQMTQTTSSLSASLGDRVTISCSASQDISDFLNWYQQKPDGTVKLLIYYTSSLHSGVPSRFSGSGSGTDYSLTINNLEPEDIATYYCQQYSKLPYTFGGGTKLEIRR")
738000
>>> assay_result("SCT-Pa09 (antibody, mouse IgG1, kappa, V domains shown) VH: QVQLQQPGAELVKPGTSVRLSCQASGYTFTSSWIHWVKQRTGQGLEWIGEISLTNGDINYNEKFTSKATLTVDKSSSTAYMQLSSLTSEDSAVYYCTIIPDGYSLYWYFDVWGAGTTVTVSS VL: QIVLSQSPPILSASPGARVTMTCRASSSVNYMHWYQQKPGSSPKPWIYATSNLASGVPVRFSGSGSGTSYSLTISRVEAEDAATYYCQQWSSNPPTFGGGTKLEIKR")
503000
>>> assay_result("SCT-Pa17 (antibody, mouse IgG1, kappa, V domains shown) VH: QVQLQQPGAELVKPGASVKLSCKASGYAFTSSWINWVKRRPGQGLEWIGNVYPRSSSPNYNEKFKGKATLTVDTSSSTAYMQLSSLTSDDSAVYFCARGYGSYWYFDVWGAGTSVTVSS VL: DIQMTQSSSSFSVSLGDRVTITCKASEDIYNRLAWYQQKPGNAPRLLISGATTLETGVPSRFSGSGSGKDYALSITSLQTEDVSTYYCQEYWSLSPTFGGGTKLEIKR")
491000

Entry SCT-Pa14 (antibody, mouse IgG1, kappa, V domains shown) VH: EVQLQQSGAELVSPGASVKLSCTASGFNIKDDYMHWVKQRPEQGLEWIGRIDPANGNTKYAPKFQDKATITADTSSNTAYLQLSSLTSEDTAVYYCFYSFYIPYTMDFWGQGTSVTVSS VL: ENVLTQSPAIMSATLGEKVTMSCRASSNVKYMYWYQQKSGASPKLWIYYTSNLTSGVPARFSGSGSGTSYSLTISSVEAEDAATYYCQQFTSSPYTFGSGTKLEIKR has what kon?
566000

Entry SCT-Pa02 (antibody, mouse IgG1, kappa, V domains shown) VH: QMQLKQSGPGLVQPSQSLSITCTVSGFSLTSYGVHWVRQSPEKGLEWLGVIWSGGGTDYNAAFISRLSISKDNSKSQVFLKMSSLQTDDTAIYYCARGAYYSLDYWGQGTTLTVSS VL: DIVLTQSPASLAVSLGQRATISCRASESVDYDGDNYMNWYQQKPGQSPKLLIYATSNLESRIPARFSGSGSGTEFTLNIHPVEEEDAATYYCLQSYDVPYTFGSGTKLEMKR has what kon?
730000
